Listed next: entries and their corresponding % Inhibition Cells.
Test system: male Lewis rats
Experiment: Carrageenan Pleurisy Assay
Type: in vivo
Details: inflammatory cells (neutrophils) in pleural exudate vs vehicle control; carrageenan 0.075 mg/rat; harvested four hours after carrageenan
Your answer should be a plain number; it is taken to be in %.

Answered examples (2):
# molecule, readingUnit, % Inhibition Cells
measured = [
    ("COCCOCCOCCOCCOCCOCCOCCOCCOCCN(C)C(=O)/C=C/c1ccc(-c2nc3c(=O)n(CC4CCCCC4)c(=O)n(CC4CCCCC4)c3[nH]2)cc1 [Example 68]", "%", 92),
    ("CCCn1c(=O)n(CC2CCCCC2)c(=O)c2nc(-c3ccc(/C=C/C(=O)OCCOCCOCCOCCOCCOCCOCCOCCOCCOC)cc3)[nH]c21 [Example 49]", "%", 28),
]

Read the next record carefully.
query: Value lookup for % Inhibition Cells; key = COCCOCCOCCOCCOCCOCCOCCOCCOCCOC(=O)/C=C/c1ccc(-c2nc3c(c(=O)n(CC4CCCCC4)c(=O)n3CC3CCCCC3)n2C)cc1 [Example 79]
result: 55

###

Listed next: entries and their corresponding melting point.

Answered examples (6):
# sampleSmiles, observedMeasurement
rows = [
    ("O=C(O)/C=C/c1ccc(-c2nc3c(=O)n(-c4ccccc4)c(=O)n(-c4ccccc4)c3[nH]2)cc1", "> 375 °C"),
    ("O=C(O)/C=C/c1ccc(-c2nc3c(=O)n(Cc4ccccc4)c(=O)n(Cc4ccccc4)c3[nH]2)cc1", "> 300 °C"),
    ("CC(C)Cn1c(=O)c2nc(-c3ccc(/C=C/C(=O)O)cc3)[nH]c2n(CC(C)C)c1=O", "> 300 °C"),
    ("O=C(O)/C=C/c1ccc(-c2nc3c(=O)n(Cc4ccccc4F)c(=O)n(Cc4ccccc4F)c3[nH]2)cc1", "> 350 °C"),
    ("O=C(O)/C=C/c1ccc(-c2nc3c(=O)n(CC4CC4)c(=O)n(CC4CC4)c3[nH]2)cc1", "> 250 °C"),
    ("O=C(O)/C=C/c1ccc(-c2nc3c(=O)n(CCC4CCCCC4)c(=O)n(CCC4CCCCC4)c3[nH]2)cc1", "> 250 °C"),
]

Read the next record carefully.
query: Value lookup for melting point; key = `O=C(O)/C=C/c1ccc(-c2nc3c(=O)n(CCc4ccccc4)c(=O)n(CCc4ccccc4)c3[nH]2)cc1`
result: > 350 °C

###

resultType: melting point

Answered examples (3):
# compound, melting point
rows = [
    ("O=C(O)/C=C/c1ccc(-c2nc3c(=O)n(Cc4cccnc4)c(=O)n(Cc4cccnc4)c3[nH]2)cc1 (hydrate or solvate)", "> 300 °C"),
    ("Cn1c(=O)c2nc(-c3ccc(/C=C/C(=O)O)cc3)[nH]c2n(C)c1=O (hydrate or solvate)", "> 350 °C"),
    ("O=C(O)/C=C/c1ccc(-c2nc3c(=O)n(Cc4ccccc4)c(=S)n(Cc4ccccc4)c3[nH]2)cc1", "> 350 °C"),
]

query: Value lookup for melting point; key = O=C(O)/C=C/c1ccc(-c2nc3c(=O)n(Cc4ccc(F)cc4)c(=O)n(Cc4ccc(F)cc4)c3[nH]2)cc1 (hydrate or solvate)
result: > 300 °C

query: Value lookup for melting point; key = `O=C(O)/C=C/c1ccc(-c2nc3c(=O)n(CC4CCCC4)c(=O)n(CC4CCCC4)c3[nH]2)cc1`
result: > 300 °C

query: Value lookup for melting point; key = CCCn1c(=O)c2nc(-c3cccc(/C=C/C(=O)O)c3)[nH]c2n(CCC)c1=O (hydrate or solvate)
result: > 350 °C
